All figures here come from patent US10479784B2.

- test target: full-length ATR (Homo sapiens (Human), UniProt Q13535)
- Sequence (Q13535 whole entry): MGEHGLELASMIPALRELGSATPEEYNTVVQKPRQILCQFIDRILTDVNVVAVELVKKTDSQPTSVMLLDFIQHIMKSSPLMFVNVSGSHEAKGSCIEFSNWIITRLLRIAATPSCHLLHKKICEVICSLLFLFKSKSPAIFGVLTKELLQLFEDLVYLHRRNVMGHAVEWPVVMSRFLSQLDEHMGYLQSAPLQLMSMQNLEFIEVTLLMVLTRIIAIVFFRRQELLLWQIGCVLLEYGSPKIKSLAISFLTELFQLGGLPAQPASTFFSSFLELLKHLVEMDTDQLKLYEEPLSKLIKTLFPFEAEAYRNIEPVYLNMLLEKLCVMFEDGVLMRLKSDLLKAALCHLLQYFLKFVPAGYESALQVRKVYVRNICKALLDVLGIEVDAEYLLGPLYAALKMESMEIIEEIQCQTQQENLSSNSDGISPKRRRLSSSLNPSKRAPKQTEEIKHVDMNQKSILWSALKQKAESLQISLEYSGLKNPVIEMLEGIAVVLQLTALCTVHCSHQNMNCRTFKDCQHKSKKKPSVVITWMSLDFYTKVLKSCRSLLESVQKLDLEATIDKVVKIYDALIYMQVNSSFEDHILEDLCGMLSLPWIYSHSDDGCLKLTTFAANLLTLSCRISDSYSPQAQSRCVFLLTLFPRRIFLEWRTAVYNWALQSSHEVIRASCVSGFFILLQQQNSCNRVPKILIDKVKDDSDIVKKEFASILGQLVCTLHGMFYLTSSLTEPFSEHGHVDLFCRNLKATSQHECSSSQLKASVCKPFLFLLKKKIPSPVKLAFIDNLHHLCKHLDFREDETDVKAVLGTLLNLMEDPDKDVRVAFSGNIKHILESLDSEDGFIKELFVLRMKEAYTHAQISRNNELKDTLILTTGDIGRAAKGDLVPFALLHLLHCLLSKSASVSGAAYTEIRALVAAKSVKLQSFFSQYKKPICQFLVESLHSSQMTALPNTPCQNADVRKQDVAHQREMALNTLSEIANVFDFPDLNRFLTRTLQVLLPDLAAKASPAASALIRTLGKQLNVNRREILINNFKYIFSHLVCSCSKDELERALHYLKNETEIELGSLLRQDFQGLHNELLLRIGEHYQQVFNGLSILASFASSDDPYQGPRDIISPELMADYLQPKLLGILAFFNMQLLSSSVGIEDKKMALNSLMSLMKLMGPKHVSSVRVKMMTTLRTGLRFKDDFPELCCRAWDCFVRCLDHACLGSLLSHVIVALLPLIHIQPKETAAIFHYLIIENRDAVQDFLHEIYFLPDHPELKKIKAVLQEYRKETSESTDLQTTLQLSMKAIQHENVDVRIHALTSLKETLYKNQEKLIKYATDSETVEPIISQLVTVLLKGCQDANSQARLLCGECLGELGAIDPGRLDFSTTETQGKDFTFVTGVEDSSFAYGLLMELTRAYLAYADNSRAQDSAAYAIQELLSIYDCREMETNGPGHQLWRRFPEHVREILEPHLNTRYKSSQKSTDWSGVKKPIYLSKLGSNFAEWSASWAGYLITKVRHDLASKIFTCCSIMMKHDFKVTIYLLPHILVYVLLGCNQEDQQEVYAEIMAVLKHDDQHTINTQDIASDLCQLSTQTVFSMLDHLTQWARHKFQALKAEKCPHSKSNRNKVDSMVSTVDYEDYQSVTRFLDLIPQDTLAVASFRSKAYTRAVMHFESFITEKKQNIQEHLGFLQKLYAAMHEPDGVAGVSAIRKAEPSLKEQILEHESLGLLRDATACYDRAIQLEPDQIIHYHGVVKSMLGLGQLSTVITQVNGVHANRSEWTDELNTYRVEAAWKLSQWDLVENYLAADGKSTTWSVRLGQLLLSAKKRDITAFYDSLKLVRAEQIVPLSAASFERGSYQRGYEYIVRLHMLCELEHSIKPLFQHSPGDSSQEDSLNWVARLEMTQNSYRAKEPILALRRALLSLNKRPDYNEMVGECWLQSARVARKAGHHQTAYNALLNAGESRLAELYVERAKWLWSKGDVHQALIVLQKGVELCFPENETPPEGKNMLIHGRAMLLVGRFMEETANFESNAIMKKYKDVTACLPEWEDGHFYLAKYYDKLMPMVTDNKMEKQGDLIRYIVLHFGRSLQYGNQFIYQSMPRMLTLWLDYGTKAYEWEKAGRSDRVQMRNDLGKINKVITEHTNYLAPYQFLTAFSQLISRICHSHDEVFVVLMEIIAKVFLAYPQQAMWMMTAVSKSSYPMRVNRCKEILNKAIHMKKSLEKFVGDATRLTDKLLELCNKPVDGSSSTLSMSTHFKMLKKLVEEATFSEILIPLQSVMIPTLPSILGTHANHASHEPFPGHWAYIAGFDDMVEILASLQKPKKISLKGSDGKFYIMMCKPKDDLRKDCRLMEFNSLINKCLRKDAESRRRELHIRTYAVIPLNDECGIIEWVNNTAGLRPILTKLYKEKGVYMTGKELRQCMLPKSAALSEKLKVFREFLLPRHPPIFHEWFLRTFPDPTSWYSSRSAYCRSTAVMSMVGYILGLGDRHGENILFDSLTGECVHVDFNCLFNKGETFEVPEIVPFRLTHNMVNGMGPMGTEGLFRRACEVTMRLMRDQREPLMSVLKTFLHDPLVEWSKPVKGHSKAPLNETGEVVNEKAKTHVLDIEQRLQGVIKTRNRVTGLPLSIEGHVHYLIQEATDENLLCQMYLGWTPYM
- run description: ATR Inhibition Assay (radioactive-phosphate incorporation)
- Assay type: biochemical
- condition context: read-out: ATR Ki
quantity measured: Ki

Nc1ncc(-c2ccc(C(=O)N3CCC(CO)CC3)cc2)nc1C(=O)Nc1ccccc1
10 to 100 nM
Nc1ncc(-c2ccccc2-c2ccccc2)nc1-c1nnc(-c2ccccc2)o1
100 to 5000 nM
CNCc1ccc(-c2nnc(-c3nc(-c4ccc(S(=O)(=O)C(C)C)cc4C(F)F)cnc3N)o2)cc1
≤ 10 nM
CNCc1ccc(-c2nnc(-c3nc(-c4ccc(S(=O)(=O)C(C)CC(C)(C)O)cc4)cnc3N)o2)c(F)c1 (stereo not drawn)
≤ 10 nM
CC(C)S(=O)(=O)c1ccc(-c2cnc(N)c(-c3nnc(-c4cccc(CN)c4)o3)n2)cc1
≤ 10 nM

Task: Please give the measured Ki for this compound: "Nc1ncc(-c2ccc(C(=O)NC3CC3)cc2)nc1C(=O)Nc1ccccc1"
Result: 10 to 100 nM

Task: Ki lookup needed for Nc1ncc(-c2ccc(C(=O)N3CCCNCC3)cc2)nc1C(=O)Nc1cc2ccccc2[nH]1 [Compound V-6] , thanks.
Result: 100 to 5000 nM

Task: Which measured Ki value corresponds to "Nc1ncc(-c2cccc(C(=O)NC3CCOCC3)c2)nc1C(=O)Nc1ccccc1" ?
Result: 10 to 100 nM

Task: What value of Ki has been reported for the following compound? "Nc1ncc(-c2cccnc2)nc1C(=O)Nc1cccn2ncnc12"
Result: 100 to 5000 nM

Task: If you can, please state the reported Ki value of "Nc1ncc(-c2ccccc2Br)nc1-c1nnc(-c2ccccc2)o1" .
Result: 100 to 5000 nM

Task: // query Ki value for entry "CN(C)C(=O)c1ccc(-c2cnc(N)c(-c3nnc(-c4cccc(CNC(=O)OC(C)(C)C)c4)o3)n2)cc1"
Result: ≤ 10 nM

Task: Field request: Ki | item: "Nc1ncc(-c2cccnc2)nc1C(=O)Nc1cccc2c1OC(F)(F)O2"
Result: 100 to 5000 nM

Task: Which Ki reading was recorded for the compound "N#Cc1ccc(-c2cnc(N)c(-c3nc4ccccc4[nH]3)n2)cc1" ?
Result: 10 to 100 nM

Task: Recorded Ki for "Nc1ncc(-c2ccc(C(=O)N3CCCNCC3)cc2)nc1-c1nnc(-c2ccccc2)o1" , please?
Result: ≤ 10 nM

Task: Sample "Nc1ncc(-c2ccccc2CCO)nc1-c1nnc(-c2ccccc2)o1" — what was its Ki?
Result: 10 to 100 nM
